- Test name: Stability in human plasma assessed as half life at 1.56 mM by RP-HPLC analysis
- Format: ADME, cell-free
Recorded metric: half-life at 1560 µM (min)
Give a bare numeral; the unit min is implied.

Here's what some known entries look like.
[[record]]
compound = "CSCC[C@H](NC(=O)[C@@H](N)CS)C(=O)N1CCC[C@H]1C(=O)N[C@@H](CC(C)C)C(=O)N[C@@H](Cc1c[nH]cn1)C(=O)N[C@@H](CO)C(=O)N[C@@H](CCCNC(=N)N)C(=O)N[C@H](C(=O)N1CCC[C@H]1C(=O)N[C@@H](Cc1ccccc1)C(=O)N1CCC[C@H]1C(N)=O)C(C)C"
reported = 23.4

[[record]]
compound = "CSCC[C@H](NC(=O)[C@H](CS)NC(=O)CC[C@H](NC(=O)CCOCCOCCOCCOCCOCCOCCN)C(=O)O)C(=O)N1CCC[C@H]1C(=O)N[C@@H](CC(C)C)C(=O)N[C@@H](Cc1c[nH]cn1)C(=O)N[C@@H](CO)C(=O)N[C@@H](CCCNC(=N)N)C(=O)N[C@H](C(=O)N1CCC[C@H]1C(=O)N[C@@H](Cc1ccccc1)C(=O)N1CCC[C@H]1C(N)=O)C(C)C"
reported = 106


Kindly review the next compound as well.
Q) Please look up its half-life at 1560 µM: "CCCCCCCCCCCCCCCC(=O)N[C@@H](CCC(=O)NCCCC[C@H](N)C(=O)N[C@@H](CS)C(=O)N[C@@H](CCSC)C(=O)N1CCC[C@H]1C(=O)N[C@@H](CC(C)C)C(=O)N[C@@H](Cc1c[nH]cn1)C(=O)N[C@@H](CO)C(=O)N[C@@H](CCCNC(=N)N)C(=O)N[C@H](C(=O)N1CCC[C@H]1C(=O)N[C@@H](Cc1ccccc1)C(=O)N1CCC[C@H]1C(N)=O)C(C)C)C(=O)O"
A) 37.8
